System: NCI-H226 lung
Test: NCI tumour cell line growth inhibition, 48 h
So basically, the class depends on measured TGI, and the ranges are low bin (below 10 µM), mid bin (10 µM to below 30 µM), high bin (30 µM or more)

[
  {
    "Molecule": "CCOC1Oc2ccccc2C(=O)/C1=C\\Nc1ccc(C(=O)O)c(O)c1 (centres undefined)",
    "Label value": "high bin"
  },
  {
    "Molecule": "CCCCCCCCCCCCCC(=O)NO",
    "Label value": "mid bin"
  },
  {
    "Molecule": "COc1cccc(C2c3cc4c(cc3OC(NNC(N)=O)C2C)OCO4)c1OC (centres undefined)",
    "Label value": "high bin"
  },
  {
    "Molecule": "O=C1/C=C/[C@@H](O)[C@@H]2C[C@@H](O)C[C@H]2/C=C/CCC[C@H](CCc2ccc(NC(=S)Nc3ccc4c(c3)C(=O)OC43c4ccc(O)cc4Oc4cc(O)ccc43)cc2)O1",
    "Label value": "low bin"
  },
  {
    "Molecule": "Clc1ccc2c(c1)CC1C[N+]3=C(CCCCC3)C1=C2 (centres undefined)",
    "Label value": "high bin"
  },
  {
    "Molecule": "O=C1/C(=C/c2cccc([N+](=O)[O-])c2)Cc2ccccc21",
    "Label value": "high bin"
  },
  {
    "Molecule": "COC(=O)/C=C(C)/C=C/c1c(C)c(C(C)=O)c(C)n1C",
    "Label value": "high bin"
  },
  {
    "Molecule": "Cc1cc2nc3c(C#N)c4c(c(Cl)n3c2cc1C)CCC4",
    "Label value": "high bin"
  },
  {
    "Molecule": "COc1cc2c(c(OC)c1)C(=O)C(=O)C(CC1(C)OCCCO1)=C2",
    "Label value": "mid bin"
  },
  {
    "Molecule": "CCc1c2c(nc3ccc(OC(=O)OCc4ccc(B5OC(C)(C)C(C)(C)O5)cc4)cc13)-c1cc3c(c(=O)n1C2)COC(=O)[C@]3(O)CC",
    "Label value": "low bin"
  },
  {
    "Molecule": "CCN(CC)CCCNC(=O)c1ccccc1Nc1c(Cl)cccc1Cl",
    "Label value": "mid bin"
  },
  {
    "Molecule": "CC1=C(N2CC2)C(=O)C(C)=C(N2CC2)C1=O",
    "Label value": "low bin"
  },
  {
    "Molecule": "C#Cc1cccc(Nc2ncnc3ccc(-c4cnc(N)nc4)cc23)c1",
    "Label value": "mid bin"
  },
  {
    "Molecule": "CC(=O)c1sc2c(c1OC(=O)c1ccccc1)c(=O)n(-c1ccccc1)c(=S)n2-c1ccccc1",
    "Label value": "low bin"
  },
  {
    "Molecule": "COc1cc(C(=O)c2cnc(-c3ccc4cc[nH]c4c3)[nH]2)cc(OC)c1OC",
    "Label value": "low bin"
  },
  {
    "Molecule": "O=C(O)CCC1(CCC(=O)O)CCCCCCCCC(CCC(=O)O)(CCC(=O)O)C(=O)C1=O",
    "Label value": "high bin"
  },
  {
    "Molecule": "CCc1nc(N)nc(N)c1-c1ccc(N(C)Cc2ccccc2)c([N+](=O)[O-])c1",
    "Label value": "mid bin"
  },
  {
    "Molecule": "CCOC(OCC)[C@@H]1C[C@@H]2N(O[C@H](OC3CCCC3(c3ccccc3)c3ccccc3)[C@H](OC(C)=O)[C@@]2(CC)Cc2ccc(OC)c(OC)c2)O1 (some centres undefined)",
    "Label value": "high bin"
  },
  {
    "Molecule": "COC(=O)c1cc2c([nH]c3ccccc32)c(-c2nc3ccccc3cc2CO)n1",
    "Label value": "high bin"
  },
  {
    "Molecule": "COc1ccc(C(=O)/C=C/c2c(C(F)(F)F)nc3ccccn23)cc1OC",
    "Label value": "high bin"
  },
  {
    "Molecule": "C[C@@]12C[C@@H](c3ccccc3O1)N1CCCSC1=N2",
    "Label value": "high bin"
  },
  {
    "Molecule": "COc1ccccc1/C=C1\\CCC(CN2CCOCC2)C1=O (centres undefined)",
    "Label value": "high bin"
  },
  {
    "Molecule": "O=C1Nc2n[nH]c(=S)n2NC12c1ccccc1-c1ccccc12",
    "Label value": "high bin"
  },
  {
    "Molecule": "Oc1ccccc1CNCc1ccccc1O",
    "Label value": "high bin"
  },
  {
    "Molecule": "O=C1C(c2ccccc2)=[N+]([O-])c2cc([N+](=O)[O-])ccc21",
    "Label value": "high bin"
  },
  {
    "Molecule": "Cc1nccc2c3ccc(OCc4cn(-c5ccc(Br)cc5)nn4)cc3n(CCCc3ccccc3)c12",
    "Label value": "mid bin"
  },
  {
    "Molecule": "CC(C)NC(=O)OCc1c(COC(=O)NC(C)C)c(-c2cc[n+](COC(=O)Cc3ccccc3)cc2)n2c1CCC2",
    "Label value": "high bin"
  },
  {
    "Molecule": "Nc1nc(N)c2c(-c3ccccc3)ccnc2n1",
    "Label value": "high bin"
  },
  {
    "Molecule": "O=c1oc2ccc(I)cc2c(=O)n1-c1ccc(I)cc1F",
    "Label value": "low bin"
  },
  {
    "Molecule": "CCOP(=O)(OCC)C(NC(c1ccccc1)c1ccccc1)c1ccsc1 (centres undefined)",
    "Label value": "mid bin"
  },
  {
    "Molecule": "COC1/C=C/OC2(C)Oc3c(C)c(O)c4c(O)c(c(/C=N/N(c5ccccc5)c5ccccc5)c(O)c4c3C2=O)NC(=O)C(C)=C/C=C/C(C)C(O)C(C)C(O)C(C)C(OC(C)=O)C1C (centres undefined)",
    "Label value": "mid bin"
  },
  {
    "Molecule": "[O-][N+]1=C(c2ccccc2)/C(=C2/C(c3ccccc3)=[N+]([O-])c3ccccc32)Cc2ccccc21",
    "Label value": "high bin"
  },
  {
    "Molecule": "CC[C@H](C)C(=O)O[C@H]1CCC=C2C=C[C@H](C)[C@H](CC[C@@H]3C[C@@H](O)CC(=O)O3)[C@H]21",
    "Label value": "high bin"
  },
  {
    "Molecule": "CCN(CC)CCOc1ccc(NC(=O)C(C(C)C)N2C(=O)/C(=C/c3ccc(Br)cc3)SC2=S)cc1 (centres undefined)",
    "Label value": "high bin"
  },
  {
    "Molecule": "Cc1cnc2c(c1)C(=O)N(c1ccc(Br)cc1)S2(=O)=O",
    "Label value": "high bin"
  }
]

Provenance of the data: PubChem BioAssay (NCI)
